target: Rac-1 (Homo sapiens (Human)); assay: Ras GTP Binding Domain Inhibition Assay, Rac-1; conditions: without SOS, read-out: Rac-1: % inh.
The entries below are paired with their reported inhibition at 20 µM.

{"Compound": "COc1cccc(Nc2nc(-c3nccn3C)nc3sc(-c4ccn(C(C)C)n4)c(C)c23)c1", "inhibition at 20 µM": "26 to 45%"}
{"Compound": "COCCNc1nc(-c2cn(C)cn2)nc2sc(-c3cccc(OC)c3Cl)c(-c3ccc(OC)cc3)c12", "inhibition at 20 µM": "46 to 75%"}
{"Compound": "COCCNc1nc(-c2nccn2C)nc2sc(-c3cccc(OC)c3Cl)c(-c3ccc(OC)cc3)c12", "inhibition at 20 µM": "46 to 75%"}
{"Compound": "Cc1c(-c2ccn(C(C)C)n2)sc2nc(-c3nccn3C)nc(NCC3CCCO3)c12 (racemic)", "inhibition at 20 µM": "46 to 75%"}

====

The entries below are paired with their reported inhibition at 20 µM.
biological target: KRas Q61H mutant (Homo sapiens (Human), UniProt P01116, Q61H); assay: Ras GTP Binding Domain Inhibition Assay, KRas Q61H mutant; settings: 20 μM; without SOS; read-out: KRas Q61H mutant: % inh.
Sequence (P01116 other isoform, or with tags, fused parts or gaps Q61H): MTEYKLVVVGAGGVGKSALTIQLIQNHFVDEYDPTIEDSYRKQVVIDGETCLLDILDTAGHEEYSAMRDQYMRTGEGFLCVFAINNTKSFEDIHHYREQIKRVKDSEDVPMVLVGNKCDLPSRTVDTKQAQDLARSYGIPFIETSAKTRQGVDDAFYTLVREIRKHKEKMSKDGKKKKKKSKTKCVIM

{"Molecule": "COc1cccc(-c2sc3nc(-c4nccn4C)nc(N[C@H]4C[C@H](OC)C4)c3c2C)c1F", "inhibition at 20 µM": "46 to 75%"}
{"Molecule": "COCCNc1nc(-c2cn(C)cn2)nc2sc(-c3cccc(OC)c3Cl)c(-c3ccc(OC)cc3)c12", "inhibition at 20 µM": "46 to 75%"}
{"Molecule": "COc1cccc(Nc2nc(-c3nccn3C)nc3sc(-c4ccn(C(C)C)n4)c(C)c23)n1", "inhibition at 20 µM": "46 to 75%"}
{"Molecule": "COc1cccc(-c2sc3nc(-c4nccn4C)nc(N[C@@H]4CC[C@@H](OC)C4)c3c2-c2ccccc2)c1F (racemic)", "inhibition at 20 µM": "26 to 45%"}
{"Molecule": "COCCOCCNc1nc(-c2nccn2C)nc2sc(-c3ccn(C(C)C)n3)c(C)c12", "inhibition at 20 µM": "76 to 100%"}
{"Molecule": "COCCNc1nc(-c2nccn2C)nc2sc(-c3cccc(OC)c3Cl)c(-c3ccc(OC)cc3)c12", "inhibition at 20 µM": "26 to 45%"}
{"Molecule": "COc1cc(-c2sc3nc(-c4nccn4C)nc(N[C@H]4C[C@H](OC)C4)c3c2-c2ccccc2)ccn1", "inhibition at 20 µM": "76 to 100%"}
{"Molecule": "COCCn1c(-c2nccn2C)nc2sc(-c3ccn(C(C)C)n3)c(C)c2c1=O", "inhibition at 20 µM": "46 to 75%"}
{"Molecule": "COc1cc(Cn2c(-c3nccn3C)nc3sc(-c4ccn(C(C)C)n4)c(C)c3c2=O)ncn1", "inhibition at 20 µM": "1 to 25%"}
{"Molecule": "COCCO[C@H]1CC[C@@H](Nc2nc(-c3nccn3C)nc3sc(-c4ccn(C(C)C)n4)c(C)c23)C1 (racemic)", "inhibition at 20 µM": "46 to 75%"}
{"Molecule": "COCCNc1nc(-c2nccn2C)nc2sc(-c3cccc(OC)c3Cl)c(-c3ccccc3)c12", "inhibition at 20 µM": "46 to 75%"}
{"Molecule": "COc1cccc(-c2sc3nc(-c4nccn4C)nc(N[C@@H]4CC[C@@H](OC)C4)c3c2C)c1F (racemic)", "inhibition at 20 µM": "26 to 45%"}
{"Molecule": "Cc1c(-c2ccn(C(C)C)n2)sc2nc(-c3nccn3C)nc(NCC3CCCO3)c12 (racemic)", "inhibition at 20 µM": "76 to 100%"}
{"Molecule": "COC1CCN(c2nc(-c3nccn3C)nc3sc(-c4ccn(C)n4)c(-c4ccccc4)c23)CC1", "inhibition at 20 µM": "46 to 75%"}
{"Molecule": "CO[C@H]1C[C@H](CNc2nc(-c3nccn3C)nc3sc(-c4ccn(C(C)C)n4)c(C)c23)C1", "inhibition at 20 µM": "46 to 75%"}

====

target: KRas wild type (Homo sapiens (Human), UniProt P01116); assay: Ras GTP Binding Domain Inhibition Assay, KRas wild type; conditions: without SOS, read-out: KRas wild type: % inh.
Sequence (P01116 other isoform, or with tags, fused parts or gaps): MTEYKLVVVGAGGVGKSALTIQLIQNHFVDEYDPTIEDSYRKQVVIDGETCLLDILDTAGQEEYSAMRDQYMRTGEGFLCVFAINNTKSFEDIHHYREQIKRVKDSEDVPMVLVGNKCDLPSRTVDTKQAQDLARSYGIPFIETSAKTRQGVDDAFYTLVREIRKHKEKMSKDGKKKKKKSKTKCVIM

{"Compound": "CO[C@H]1CC[C@@H](Nc2nc(-c3nccn3C)nc3sc(-c4ccn(C(C)C)n4)c(C)c23)C1 (racemic)", "inhibition at 20 µM": "76 to 100%"}
{"Compound": "COCCCOc1nc(-c2nccn2C)nc2sc(-c3ccn(C(C)C)n3)c(-c3ccccc3)c12", "inhibition at 20 µM": "0%"}
{"Compound": "COc1cccc(-c2sc3nc(-c4nccn4C)nc(N[C@H]4C[C@H](OC)C4)c3c2C)c1F", "inhibition at 20 µM": "76 to 100%"}
{"Compound": "COc1cccc(-c2sc3nc(-c4nccn4C)nc(N[C@@H]4CC[C@@H](OC)C4)c3c2-c2ccccc2)c1F (racemic)", "inhibition at 20 µM": "26 to 45%"}
{"Compound": "COc1nccc(-c2sc3nc(-c4nccn4C)nc(N[C@H]4C[C@H](OC)C4)c3c2-c2ccccc2)c1F", "inhibition at 20 µM": "46 to 75%"}
{"Compound": "COc1cc(-c2sc3nc(-c4nccn4C)nc(N[C@H]4C[C@H](OC)C4)c3c2-c2ccccc2)ccn1", "inhibition at 20 µM": "46 to 75%"}

====

Biological target: Rho-A (Homo sapiens (Human), UniProt P61586)
Sequence (P61586 whole entry, species assumed, the tested form may be a part): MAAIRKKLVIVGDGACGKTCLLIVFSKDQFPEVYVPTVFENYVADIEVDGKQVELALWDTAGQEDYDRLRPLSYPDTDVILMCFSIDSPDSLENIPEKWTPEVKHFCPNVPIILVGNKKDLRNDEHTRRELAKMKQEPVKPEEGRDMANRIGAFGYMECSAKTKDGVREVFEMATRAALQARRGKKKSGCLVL
Experiment: Ras GTP Binding Domain Inhibition Assay, Rho-A
Details: without SOS, read-out: Rho-A: % inh.
Procedure: A Ras Superfamily Activity Assay (as disclosed in International Application No. PCT/US2018/038613, filed Jun. 20, 2018, which is incorporated by reference in its entirety) was used as a specific assay to evaluate compounds against the following for the following Ras Superfamily proteins: KRas wild type, KRas Q61H mutant, KRas G12C mutant, KRas G12D mutant, Rac-1, and Rho-A. Buffer-I: • 25 mM Tris-HCl, pH 7.4 • 27 mM KCl • 137 mM NaCl • 1 mM MgCl2 • 1 mM DTT […]
The entries below are paired with their reported inhibition at 20 µM.

{"Molecule": "COCCn1ccc(-c2sc3nc(-c4nccn4C)nc(NC[C@H]4CC[C@H]4COC)c3c2C)n1 (racemic) [Compound 38]", "System": "Rho-A (Homo sapiens (Human), UniProt P61586)", "inhibition at 20 µM": "26 to 45%"}
{"Molecule": "COCCCOc1nc(-c2nccn2C)nc2sc(-c3ccn(C(C)C)n3)c(C)c12 [Compound 32]", "System": "Rho-A (Homo sapiens (Human), UniProt P61586)", "inhibition at 20 µM": "76 to 100%"}
{"Molecule": "COCCn1c(-c2nccn2C)nc2sc(-c3ccn(C(C)C)n3)c(C)c2c1=O [Compound 29]", "System": "Rho-A (Homo sapiens (Human), UniProt P61586)", "inhibition at 20 µM": "76 to 100%"}
{"Molecule": "COCC1(OC)CCN(c2nc(-c3nccn3C)nc3sc(-c4ccn(C(C)C)n4)c(C)c23)C1 (racemic) [Compound 27]", "System": "Rho-A (Homo sapiens (Human), UniProt P61586)", "inhibition at 20 µM": "46 to 75%"}
{"Molecule": "COc1cccc(-c2sc3nc(-c4nccn4C)nc(NC4CCC(OC)C4)c3c2C)c1F (racemic) [Compound 10]", "System": "Rho-A (Homo sapiens (Human), UniProt P61586)", "inhibition at 20 µM": "76 to 100%"}
{"Molecule": "COc1cccc(-c2sc3nc(-c4nccn4C)nc(N[C@@H]4CC[C@@H](OC)C4)c3c2-c2ccccc2)c1F (racemic) [Compound 41]", "System": "Rho-A (Homo sapiens (Human), UniProt P61586)", "inhibition at 20 µM": "0%"}
{"Molecule": "COc1cc(-c2sc3nc(-c4nccn4C)nc(N[C@@H]4CC[C@@H](OC)C4)c3c2-c2ccccc2)ccn1 (racemic) [Compound 47]", "System": "Rho-A (Homo sapiens (Human), UniProt P61586)", "inhibition at 20 µM": "46 to 75%"}
{"Molecule": "COCCCCn1c(-c2nccn2C)nc2sc(-c3ccn(C(C)C)n3)c(C)c2c1=O [Compound 33]", "System": "Rho-A (Homo sapiens (Human), UniProt P61586)", "inhibition at 20 µM": "0%"}
{"Molecule": "COc1cc(Cn2c(-c3nccn3C)nc3sc(-c4ccn(C(C)C)n4)c(C)c3c2=O)ncn1 [Compound 35]", "System": "Rho-A (Homo sapiens (Human), UniProt P61586)", "inhibition at 20 µM": "0%"}
{"Molecule": "COc1cc(-c2sc3nc(-c4nccn4C)nc(N[C@H]4C[C@H](OC)C4)c3c2-c2ccccc2)ccn1 [Compound 46]", "System": "Rho-A (Homo sapiens (Human), UniProt P61586)", "inhibition at 20 µM": "46 to 75%"}
{"Molecule": "COc1cccc(-c2sc3nc(-c4nccn4C)nc(N[C@@H]4CC[C@@H](OC)C4)c3c2C)c1F (racemic) [Compound 43]", "System": "Rho-A (Homo sapiens (Human), UniProt P61586)", "inhibition at 20 µM": "26 to 45%"}
{"Molecule": "COCCCOc1nc(-c2nccn2C)nc2sc(-c3ccn(C(C)C)n3)c(-c3ccccc3)c12 [Compound 37]", "System": "Rho-A (Homo sapiens (Human), UniProt P61586)", "inhibition at 20 µM": "0%"}
{"Molecule": "COCCCn1c(-c2nccn2C)nc2sc(-c3ccn(C(C)C)n3)c(-c3ccccc3)c2c1=O [Compound 36]", "System": "Rho-A (Homo sapiens (Human), UniProt P61586)", "inhibition at 20 µM": "0%"}
{"Molecule": "COCCn1ccc(-c2sc3nc(-c4nccn4C)nc(N[C@@H]4CC[C@H](OC)C4)c3c2C)n1 (racemic) [Compound 39]", "System": "Rho-A (Homo sapiens (Human), UniProt P61586)", "inhibition at 20 µM": "46 to 75%"}
{"Molecule": "CO[C@H]1CC[C@@H](Nc2nc(-c3nccn3C)nc3sc(-c4ccn(C)n4)c(-c4ccccc4)c23)C1 (racemic) [Compound 5]", "System": "Rho-A (Homo sapiens (Human), UniProt P61586)", "inhibition at 20 µM": "46 to 75%"}
{"Molecule": "COCCNc1nc(-c2cn(C)cn2)nc2sc(-c3cccc(OC)c3Cl)c(-c3ccc(OC)cc3)c12 [Compound 8]", "System": "Rho-A (Homo sapiens (Human), UniProt P61586)", "inhibition at 20 µM": "46 to 75%"}
{"Molecule": "CO[C@H]1CC[C@@H](Nc2nc(-c3nccn3C)nc3sc(-c4ccn(C(C)C)n4)c(C)c23)C1 (racemic) [Compound 12]", "System": "Rho-A (Homo sapiens (Human), UniProt P61586)", "inhibition at 20 µM": "76 to 100%"}
